format: in vivo, human; conditions: human, plasma, oral, AUC(0–∞), arithmetic mean (SD), 5 mg lenvatinib + ketoconazole 400 mg/day [B], n = 16
METRIC: AUC(0-inf) (ng·h/mL)

CHEM SMILES	ASSAY RESULT
COc1cc2nccc(Oc3ccc(NC(=O)NC4CC4)c(Cl)c3)c2cc1C(N)=O	676

###

type: in vivo, human; details: human, plasma, oral, AUC(0–t), geometric mean (%CV), 5 mg lenvatinib + ketoconazole 400 mg/day [B], n = 16

CHEM SMILES	AUC(0-t), µg·h/mL
COc1cc2nccc(Oc3ccc(NC(=O)NC4CC4)c(Cl)c3)c2cc1C(N)=O	0.647

###

type: in vivo, human; settings: human, plasma, oral, 5 mg, tmax, arithmetic mean (SD), 5 mg lenvatinib + placebo [A], n = 16
METRIC: Tmax (h)

COMPOUND	METRIC	MEASUREMENT UNITS	ASSAY RESULT
COc1cc2nccc(Oc3ccc(NC(=O)NC4CC4)c(Cl)c3)c2cc1C(N)=O [Lenvatinib]	Tmax	h	3.13

###

type: in vivo, human; details: human, plasma, oral, t½, arithmetic mean (SD), 5 mg lenvatinib + ketoconazole 400 mg/day [B], n = 16

COMPOUND	MEASUREMENT UNITS	half-life
COc1cc2nccc(Oc3ccc(NC(=O)NC4CC4)c(Cl)c3)c2cc1C(N)=O [Lenvatinib]	h	28.3

###

assay type: in vivo, human; conditions: human, plasma, oral, 5 mg, AUC(0–∞), geometric mean (%CV), 5 mg lenvatinib + placebo [A], n = 16

COMPOUND	AUC(0-inf), ng·h/mL
COc1cc2nccc(Oc3ccc(NC(=O)NC4CC4)c(Cl)c3)c2cc1C(N)=O [Lenvatinib]	577

###

assay type: in vivo, human; conditions: human, plasma, oral, 5 mg, tmax median (range), 5 mg lenvatinib + placebo [A]
METRIC: Tmax (h)

COMPOUND	ASSAY RESULT
COc1cc2nccc(Oc3ccc(NC(=O)NC4CC4)c(Cl)c3)c2cc1C(N)=O [Lenvatinib]	3

###

format: in vivo, human; details: human, plasma, oral, 5 mg, AUC(0–t), geometric mean (%CV), 5 mg lenvatinib + placebo [A], n = 16
METRIC: AUC(0-t)

CHEM SMILES	METRIC	ASSAY RESULT
COc1cc2nccc(Oc3ccc(NC(=O)NC4CC4)c(Cl)c3)c2cc1C(N)=O	AUC(0-t)	564 ng·h/mL

###

assay type: in vivo, human; conditions: human, plasma, oral, 5 mg, t½ median (range), 5 mg lenvatinib + placebo [A]

CHEM SMILES	MEASUREMENT UNITS	half-life
COc1cc2nccc(Oc3ccc(NC(=O)NC4CC4)c(Cl)c3)c2cc1C(N)=O	h	29

###

format: in vivo, human; details: human, plasma, oral, AUC(0–t), arithmetic mean (SD), 5 mg lenvatinib + ketoconazole 400 mg/day [B], n = 16

MOLECULE	AUC(0-t) [ng·h/mL]
COc1cc2nccc(Oc3ccc(NC(=O)NC4CC4)c(Cl)c3)c2cc1C(N)=O [Lenvatinib]	661

###

assay type: in vivo, human; details: human, plasma, oral, 5 mg, AUC(0–t), arithmetic mean (SD), 5 mg lenvatinib + placebo [A], n = 16
METRIC: AUC(0-t) (ng·h/mL)

CHEM SMILES	ASSAY RESULT
COc1cc2nccc(Oc3ccc(NC(=O)NC4CC4)c(Cl)c3)c2cc1C(N)=O	571

###

assay type: in vivo, human; settings: human, plasma, oral, AUC(0–∞), geometric mean (%CV), 5 mg lenvatinib + ketoconazole 400 mg/day [B], n = 16

MOLECULE	AUC(0-inf) [ng·h/mL]
COc1cc2nccc(Oc3ccc(NC(=O)NC4CC4)c(Cl)c3)c2cc1C(N)=O [Lenvatinib]	662

###

format: in vivo, human; details: human, plasma, oral, t½ median (range), 5 mg lenvatinib + ketoconazole [B]

MOLECULE	MEASUREMENT UNITS	half-life
COc1cc2nccc(Oc3ccc(NC(=O)NC4CC4)c(Cl)c3)c2cc1C(N)=O [Lenvatinib]	h	29.2

###

type: in vivo, human; details: human, plasma, oral, tmax, arithmetic mean (SD), 5 mg lenvatinib + ketoconazole 400 mg/day [B], n = 16

CHEM SMILES	Tmax, h
COc1cc2nccc(Oc3ccc(NC(=O)NC4CC4)c(Cl)c3)c2cc1C(N)=O	2.56
